experiment: NCI Yeast Anticancer Drug Screen. Data for the rad50 strain (AID 155);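 further: 0% = growth of vehicle-only cultures of the same strain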; conditions: S. cerevisiae rad50 strain growth inhibition; at 50.0 µM; active compounds read high
Compounds without any hit were thinned out: in the full panel of roughly 79,000, 15% have a hit.
Attribute: growth inhibition

Molecule | U | growth inhibition
CC(=O)NC1=NC(=O)/C(=C/c2ccc(/C=C3/C(=O)N=C(NC(C)=O)N3C)cc2)N1C | % | -20.6
O=c1[nH]c(Nc2cccc(Br)c2)nc2nc[nH]c12 | % | -53.2
CCOc1ccc(C(=O)OC)cc1 | % | 31.1
CCOC(=O)C(/C=C/c1cc(C)c(C)c(C)c1)(NC=O)C(=O)OCC | % | -3.25
O=S(CCCl)c1ccccc1 (configuration not stated) | % | -8.3
[C-]#[N+]C1(c2ccccc2)C2CC3CC(C2)CC1C3 (configuration not stated) | % | -1.7
O=C(NCc1ccccc1)c1cc(Cl)ccc1O | % | -20.3
NNC(=O)CSc1ncnc2nc[nH]c12 | % | 1.3
CCNc1ccc(N=Nc2ccc(-c3ccc(N=Nc4ccc(NCC)c5ccccc45)c(OC)c3)cc2OC)c2ccccc12 | % | -1.15
Cc1c(NC(=O)Nc2c(Cl)cccc2Cl)c(=O)n(-c2ccccc2)n1C | % | -42.8
O=c1c(-c2ccccc2)coc2ccccc12 | % | -9
CC1CCCC2(CN=C(Nc3ccccc3)O2)C1 (configuration not stated) | % | -13.7

---

Item-by-item account of growth inhibition
experiment: NCI Yeast Anticancer Drug Screen. Data for the sgs1 mgt1 strain (AID 161);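 further: 0% = growth of cultures given vehicle only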; settings: S. cerevisiae sgs1 mgt1 strain, at 50.0 µM, active compounds read high
The panel holds about 79,000 compounds, 15% with a hit somewhere; the sample as a whole holds those more often.

Compound | growth inhibition / %
CSc1nc(C=O)nc(SC)n1 | 9.1
NCCCc1ccc2c(c1)OCO2 | 36
O=[N+]([O-])c1cccc2c(-c3nccc4c([N+](=O)[O-])cccc34)nccc12 | -19.4
C#Cc1nc(N)c2ncn(C3OC(COS(N)(=O)=O)C(O)C3O)c2n1 (stereo not given) | 7.9
CC(C)=NNC(=O)COCC(=O)NN=C(C)C | -1.35

---

Readings of growth inhibition for the listed compounds
assay: NCI Yeast Anticancer Drug Screen. Data for the bub3 strain (AID 167); details: S. cerevisiae bub3 mutant strain, at 50.0 µM, active compounds read high
Compounds without any hit were thinned out: in the full panel of roughly 79,000, 15% have a hit.

Compound | U | growth inhibition
COC(=O)C1=C(O)C(C(=O)OC)[C@@]2(O)[C@@H](C(=O)OC)[C@H](C)C[C@@H]1[C@@H]2C(=O)OC (stereo not given in full) | % | 23.1
CCN1CCCC(C#N)(c2ccccc2)CC1 (stereo not given) | % | 3.2
CCOC(=O)c1ccc(OC)c2[nH]c3c(c(=O)c12)C(=O)c1[nH]c2c(OC)ccc(C(=O)OCC)c2c(=O)c1C3=O | % | -0.25
CCSC(C(OC(C)=O)C(OC(C)=O)C(COC(C)=O)OC(C)=O)n1cnc2c(=S)nc[nH]c21 (stereo not given) | % | -1.55
C[Si](C)(C)CCCn1ccc(=O)[nH]c1=O | % | 29.4
O=C(O)CCCCl | % | 12.7
Cc1cccc(-n2c(CC#N)n[nH]c2=S)c1 | % | 5.2
CN(CCNC(=O)NCCCCCCNC(=O)NCCN(C)c1ccccc1)c1ccccc1 | % | 3.45
CCOC(=O)C1(C(C)C)OC2(O)C3CCCN3C(=O)C(C(C)C)N2C1=O (stereo not given) | % | 8.8
C#CCN(CCO)Cc1ccccc1 | % | -4
CCC1(C#CCN2C(=O)c3ccccc3C2=O)C=CC2(CC1)OCCO2 (stereo not given) | % | 2.5
O=C(O)c1cccc2cnccc12 | % | -13.3
COC1(OC)c2no[n+]([O-])c2C(OC)(OC)c2c1no[n+]2[O-] | % | 20.6
O=C(CN1C(=O)c2ccccc2C1=O)NC1(C(=O)O)CCCC1 | % | -30.8
CN(C)c1nc(N(C)C)n2c(-c3ccccc3[N+](=O)[O-])nnc2n1 | % | 13.3
CCCCCCC(=O)O | % | -0.1
C=C(C)CCCC(C)C(O)C=O (stereo not given) | % | -5.35
COC(=O)C(Cc1nc2ccc(Cl)cc2[nH]c1=O)/C(=N/O)C(=O)Nc1cccc(Cl)c1C (stereo not given) | % | 0.3
CC1CCN(C(=S)[S-])CC1.CC1CCN(C(=S)[S-])CC1.[Zn] | % | 5.85
CC(=O)OCC(OC(C)=O)C(OC(C)=O)C(OC(C)=O)C(S)S (stereo not given) | % | 29.9
COC1=CC(=O)C(Cc2ccc3c(c2)OCO3)=CC1=O | % | 3.1
COC(=O)/C=C(/C(=O)OC)C1(C)c2cc(C(=O)OC)c(C(=O)OC)c(N)c2C(=N)N1c1ccccc1 (stereo not given) | % | -5.15
CC1=C(C#N)C(=N)OC1(C)C1CC(=O)C=CC1=O (stereo not given) | % | 4.55
O=C1OC2C(I)C3C(C4CCCCC4)C1C23 (stereo not given) | % | 65.8
N#C/C(=C/C=C/c1ccccc1)c1ccc([N+](=O)[O-])cc1 | % | 36.5
CC1(C)OC2CC(=O)OCC23C1CC(=O)C1(C)C3CCC2(C)C(c3ccoc3)OC(=O)C3OC321 (stereo not given) | % | 8.7
O=C(CCCCc1ccccc1)NO | % | -5.5
Cc1cccc(C(=O)OCc2ccccc2CN2CCCCC2)c1 | % | 2.85
Nc1c(Cl)ncnc1NCCN1CCOCC1 | % | -17.5
Cc1cc(S(=O)(=O)Nc2nc(N)nc(N(C)C)n2)c(S)cc1Cl | % | -46
N#Cc1ccccc1C#N | % | -4.7
N#Cc1nc(NC(=O)c2ccccc2)sc1N | % | 4.2
CCOC(=O)CC1C(O)C(=O)N(C)C1c1ccccc1 (stereo not given) | % | 9
CCCCCCCCCCCCCC(=O)N(CCCCCCCCC)CC(O)C(O)C(OC1OC(CO)C(O)C(O)C1O)C(O)CO (stereo not given) | % | -49.1
CCOC(=O)c1cnc(SC)nc1Nc1cccc(C)c1 | % | 9.1
